System: RARa homodimer (NR concentration 270 nM)
Assay: PBM binding z-score (relative to random genomic background probes); higher = stronger binding; sequences stand for … in GC…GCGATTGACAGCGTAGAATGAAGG
// thresholds for PBM binding z-score classes: low band = under -0.06, middle band = from -0.06 up to 1, high band = 1 and over

{"CONSTRUCT_SEQUENCE": "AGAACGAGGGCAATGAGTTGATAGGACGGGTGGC", "SYSTEM_TESTED": "RARa homodimer (NR concentration 270 nM)", "QUALITATIVE_LABEL": "low band"}
{"CONSTRUCT_SEQUENCE": "CCTTGTTGGTCAAGGTCACACACGCTATAGGTAC", "SYSTEM_TESTED": "RARa homodimer (NR concentration 270 nM)", "QUALITATIVE_LABEL": "high band"}
{"CONSTRUCT_SEQUENCE": "ACTTACGGGTCAACGAGGTTATAGTACGCGTATA", "SYSTEM_TESTED": "RARa homodimer (NR concentration 270 nM)", "QUALITATIVE_LABEL": "high band"}
{"CONSTRUCT_SEQUENCE": "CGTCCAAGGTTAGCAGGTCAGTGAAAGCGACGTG", "SYSTEM_TESTED": "RARa homodimer (NR concentration 270 nM)", "QUALITATIVE_LABEL": "low band"}
{"CONSTRUCT_SEQUENCE": "ATCGATAGGTCGAAGGTGAGTATACCCACCCGAA", "SYSTEM_TESTED": "RARa homodimer (NR concentration 270 nM)", "QUALITATIVE_LABEL": "low band"}
{"CONSTRUCT_SEQUENCE": "TCTATTAGTTGATTATGGCAACCGAAACAGCGGA", "SYSTEM_TESTED": "RARa homodimer (NR concentration 270 nM)", "QUALITATIVE_LABEL": "high band"}
{"CONSTRUCT_SEQUENCE": "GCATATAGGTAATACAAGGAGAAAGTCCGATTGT", "SYSTEM_TESTED": "RARa homodimer (NR concentration 270 nM)", "QUALITATIVE_LABEL": "middle band"}
{"CONSTRUCT_SEQUENCE": "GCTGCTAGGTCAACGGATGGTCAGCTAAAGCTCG", "SYSTEM_TESTED": "RARa homodimer (NR concentration 270 nM)", "QUALITATIVE_LABEL": "low band"}
{"CONSTRUCT_SEQUENCE": "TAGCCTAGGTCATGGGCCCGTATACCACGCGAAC", "SYSTEM_TESTED": "RARa homodimer (NR concentration 270 nM)", "QUALITATIVE_LABEL": "middle band"}
{"CONSTRUCT_SEQUENCE": "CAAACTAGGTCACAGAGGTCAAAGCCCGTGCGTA", "SYSTEM_TESTED": "RARa homodimer (NR concentration 270 nM)", "QUALITATIVE_LABEL": "high band"}
{"CONSTRUCT_SEQUENCE": "TCATATAGGTAAACAGGTGAAGGTCCGTAAGTTA", "SYSTEM_TESTED": "RARa homodimer (NR concentration 270 nM)", "QUALITATIVE_LABEL": "middle band"}
{"CONSTRUCT_SEQUENCE": "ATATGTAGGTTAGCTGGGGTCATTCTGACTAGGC", "SYSTEM_TESTED": "RARa homodimer (NR concentration 270 nM)", "QUALITATIVE_LABEL": "high band"}
{"CONSTRUCT_SEQUENCE": "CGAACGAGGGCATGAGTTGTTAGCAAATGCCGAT", "SYSTEM_TESTED": "RARa homodimer (NR concentration 270 nM)", "QUALITATIVE_LABEL": "low band"}
{"CONSTRUCT_SEQUENCE": "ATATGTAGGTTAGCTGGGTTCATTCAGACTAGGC", "SYSTEM_TESTED": "RARa homodimer (NR concentration 270 nM)", "QUALITATIVE_LABEL": "high band"}
{"CONSTRUCT_SEQUENCE": "CGTCAAAGTTCAGCTAAGGTAACGTAAAGCACGC", "SYSTEM_TESTED": "RARa homodimer (NR concentration 270 nM)", "QUALITATIVE_LABEL": "high band"}
{"CONSTRUCT_SEQUENCE": "AGAATGAGGTTATGAAGATCAGGGAATTGCGGTC", "SYSTEM_TESTED": "RARa homodimer (NR concentration 270 nM)", "QUALITATIVE_LABEL": "middle band"}
{"CONSTRUCT_SEQUENCE": "CCAACTAGGTCACCGGAAGGTCAAAGTCCGCATG", "SYSTEM_TESTED": "RARa homodimer (NR concentration 270 nM)", "QUALITATIVE_LABEL": "high band"}
{"CONSTRUCT_SEQUENCE": "CCAATTAGTTGACCATAAGGGCAACCGAAGCTCG", "SYSTEM_TESTED": "RARa homodimer (NR concentration 270 nM)", "QUALITATIVE_LABEL": "high band"}
{"CONSTRUCT_SEQUENCE": "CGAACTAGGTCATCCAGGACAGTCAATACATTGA", "SYSTEM_TESTED": "RARa homodimer (NR concentration 270 nM)", "QUALITATIVE_LABEL": "middle band"}
{"CONSTRUCT_SEQUENCE": "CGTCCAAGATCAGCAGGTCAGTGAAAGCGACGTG", "SYSTEM_TESTED": "RARa homodimer (NR concentration 270 nM)", "QUALITATIVE_LABEL": "low band"}
{"CONSTRUCT_SEQUENCE": "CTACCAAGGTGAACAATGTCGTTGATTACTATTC", "SYSTEM_TESTED": "RARa homodimer (NR concentration 270 nM)", "QUALITATIVE_LABEL": "middle band"}
{"CONSTRUCT_SEQUENCE": "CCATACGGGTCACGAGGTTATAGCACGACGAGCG", "SYSTEM_TESTED": "RARa homodimer (NR concentration 270 nM)", "QUALITATIVE_LABEL": "high band"}
{"CONSTRUCT_SEQUENCE": "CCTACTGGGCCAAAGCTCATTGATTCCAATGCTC", "SYSTEM_TESTED": "RARa homodimer (NR concentration 270 nM)", "QUALITATIVE_LABEL": "low band"}
{"CONSTRUCT_SEQUENCE": "GCGACTGGGGCATCAGCATGTTACCATAACTTAA", "SYSTEM_TESTED": "RARa homodimer (NR concentration 270 nM)", "QUALITATIVE_LABEL": "low band"}
{"CONSTRUCT_SEQUENCE": "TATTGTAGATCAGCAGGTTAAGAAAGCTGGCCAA", "SYSTEM_TESTED": "RARa homodimer (NR concentration 270 nM)", "QUALITATIVE_LABEL": "low band"}
{"CONSTRUCT_SEQUENCE": "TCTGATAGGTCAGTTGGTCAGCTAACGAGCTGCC", "SYSTEM_TESTED": "RARa homodimer (NR concentration 270 nM)", "QUALITATIVE_LABEL": "middle band"}
{"CONSTRUCT_SEQUENCE": "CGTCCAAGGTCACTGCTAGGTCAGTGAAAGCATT", "SYSTEM_TESTED": "RARa homodimer (NR concentration 270 nM)", "QUALITATIVE_LABEL": "middle band"}
{"CONSTRUCT_SEQUENCE": "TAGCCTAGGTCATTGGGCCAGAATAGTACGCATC", "SYSTEM_TESTED": "RARa homodimer (NR concentration 270 nM)", "QUALITATIVE_LABEL": "middle band"}
{"CONSTRUCT_SEQUENCE": "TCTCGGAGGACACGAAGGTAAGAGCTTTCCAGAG", "SYSTEM_TESTED": "RARa homodimer (NR concentration 270 nM)", "QUALITATIVE_LABEL": "low band"}
{"CONSTRUCT_SEQUENCE": "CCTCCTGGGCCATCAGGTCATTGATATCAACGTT", "SYSTEM_TESTED": "RARa homodimer (NR concentration 270 nM)", "QUALITATIVE_LABEL": "low band"}
{"CONSTRUCT_SEQUENCE": "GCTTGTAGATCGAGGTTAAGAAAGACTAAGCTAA", "SYSTEM_TESTED": "RARa homodimer (NR concentration 270 nM)", "QUALITATIVE_LABEL": "middle band"}
{"CONSTRUCT_SEQUENCE": "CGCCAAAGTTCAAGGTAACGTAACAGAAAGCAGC", "SYSTEM_TESTED": "RARa homodimer (NR concentration 270 nM)", "QUALITATIVE_LABEL": "high band"}
{"CONSTRUCT_SEQUENCE": "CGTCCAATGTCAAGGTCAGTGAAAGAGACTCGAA", "SYSTEM_TESTED": "RARa homodimer (NR concentration 270 nM)", "QUALITATIVE_LABEL": "middle band"}
{"CONSTRUCT_SEQUENCE": "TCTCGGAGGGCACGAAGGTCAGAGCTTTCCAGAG", "SYSTEM_TESTED": "RARa homodimer (NR concentration 270 nM)", "QUALITATIVE_LABEL": "low band"}
{"CONSTRUCT_SEQUENCE": "AGTCAAAGCTCAGGACGAGGTAACGTAAAGCACG", "SYSTEM_TESTED": "RARa homodimer (NR concentration 270 nM)", "QUALITATIVE_LABEL": "low band"}
{"CONSTRUCT_SEQUENCE": "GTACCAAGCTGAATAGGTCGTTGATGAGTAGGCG", "SYSTEM_TESTED": "RARa homodimer (NR concentration 270 nM)", "QUALITATIVE_LABEL": "low band"}
{"CONSTRUCT_SEQUENCE": "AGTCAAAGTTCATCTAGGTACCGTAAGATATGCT", "SYSTEM_TESTED": "RARa homodimer (NR concentration 270 nM)", "QUALITATIVE_LABEL": "high band"}
{"CONSTRUCT_SEQUENCE": "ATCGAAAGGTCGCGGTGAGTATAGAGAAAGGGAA", "SYSTEM_TESTED": "RARa homodimer (NR concentration 270 nM)", "QUALITATIVE_LABEL": "middle band"}
{"CONSTRUCT_SEQUENCE": "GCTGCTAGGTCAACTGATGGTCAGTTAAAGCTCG", "SYSTEM_TESTED": "RARa homodimer (NR concentration 270 nM)", "QUALITATIVE_LABEL": "middle band"}
{"CONSTRUCT_SEQUENCE": "TCATATAGGTAAAGGTGAAACTCGAACGATATGA", "SYSTEM_TESTED": "RARa homodimer (NR concentration 270 nM)", "QUALITATIVE_LABEL": "middle band"}
{"CONSTRUCT_SEQUENCE": "TGTCAAAGTTCAAAGGTAACGTGAGTATCCACAC", "SYSTEM_TESTED": "RARa homodimer (NR concentration 270 nM)", "QUALITATIVE_LABEL": "middle band"}
{"CONSTRUCT_SEQUENCE": "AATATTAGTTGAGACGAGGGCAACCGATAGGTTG", "SYSTEM_TESTED": "RARa homodimer (NR concentration 270 nM)", "QUALITATIVE_LABEL": "high band"}
{"CONSTRUCT_SEQUENCE": "CCTAGCAGGCCAATCTGGGTCGCTCAAGGCTTGA", "SYSTEM_TESTED": "RARa homodimer (NR concentration 270 nM)", "QUALITATIVE_LABEL": "low band"}
{"CONSTRUCT_SEQUENCE": "GTTTACGGGTCAAAGGTTATAGCATGAATAGAAT", "SYSTEM_TESTED": "RARa homodimer (NR concentration 270 nM)", "QUALITATIVE_LABEL": "middle band"}
{"CONSTRUCT_SEQUENCE": "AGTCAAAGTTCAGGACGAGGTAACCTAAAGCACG", "SYSTEM_TESTED": "RARa homodimer (NR concentration 270 nM)", "QUALITATIVE_LABEL": "middle band"}
{"CONSTRUCT_SEQUENCE": "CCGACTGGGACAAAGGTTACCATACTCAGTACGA", "SYSTEM_TESTED": "RARa homodimer (NR concentration 270 nM)", "QUALITATIVE_LABEL": "middle band"}
{"CONSTRUCT_SEQUENCE": "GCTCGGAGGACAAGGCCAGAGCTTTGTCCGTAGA", "SYSTEM_TESTED": "RARa homodimer (NR concentration 270 nM)", "QUALITATIVE_LABEL": "low band"}
{"CONSTRUCT_SEQUENCE": "ATGTCTAGGTAAAAGTTCAGTGAATCCCGAGGAT", "SYSTEM_TESTED": "RARa homodimer (NR concentration 270 nM)", "QUALITATIVE_LABEL": "middle band"}
